I'd appreciate it if you could supply IC50 values for the items below.
system: PC-3; experiment: Antiproliferative activity against AR-negative human PC-3 cells assessed as reduction in cell viability incubated for 96 hrs by cell-titer glo assay; type: functional, cell-based; conditions: PC-3, 96 h

Cc1noc2ccc(-c3nc4ccc(N5CCOC[C@@H]5C)cc4n3CC3CCCCC3)cc12: > 3000 nM

Form field, IC50 with PC-3, item COc1cc2onc(C)c2cc1NS(=O)(=O)c1cc(Br)ccc1OC : > 3000 nM

* * *

Answer each item with its documented IC50.
target: Bromodomain-containing protein 4 (Homo sapiens); test: Inhibition of HYSGRGK(Ac)GGK(Ac)GLGK(Ac)GGAK(Ac)RHRK(Biotin)-OH binding to recombinant human His6-tagged BRD4 bromodomain 1 (N44 to E168 residues) expressed in Escherichia coli BL21 (DE3) cells measured after 2 hrs by Alphascreen assay
Numbers only, in nM.

Cc1cc2onc(C)c2cc1NS(=O)(=O)C1CCCCC1: 2240
COc1ccc(Br)cc1S(=O)(=O)Nc1cc2c(C)noc2cc1C: 620
Cc1noc2ccc(-c3nc4ccc(N5CCOC[C@@H]5C)cc4n3CC3CCCCC3)cc12: 180

Below: the item to evaluate.
Reported IC50 of Cc1cc2onc(C)c2cc1NS(=O)(=O)c1ccccc1Br : 1840

* * *

molecular target: Bromodomain-containing protein 4 (Homo sapiens, UniProt O60885); assay: Binding affinity to human recombinant His6-tagged BRD4 bromodomain 1 (N44 to E168 residues) expressed in Escherichia coli BL21 (DE3) cells assessed as change in enthalpy incubated for 1 hr by isothermal titration calorimetry
What deltaH was measured for each of the following?
Answers are plain numbers, in kcal/mol.

Known results for compounds:
Cc1noc2ccc(-c3nc4ccc(N5CCOC[C@@H]5C)cc4n3CC3CCCCC3)cc12: -11.9
Cc1noc2c(Br)cc(-c3nc4ccc(N5CCOCC5)cc4n3CC3CCCCC3)cc12: -10.7
CNc1cc2onc(C)c2cc1NS(=O)(=O)c1cc(Br)ccc1OC: -15.3

Lab note: next compound to report on.
The recorded deltaH for entry COc1cc2onc(C)c2cc1NS(=O)(=O)c1cc(Br)ccc1OC equals -12.2

* * *

So I've got a bunch of compounds here, and I need their log10 of IC50 values.
target: Bromodomain-containing protein 4 (Homo sapiens, UniProt O60885); assay: Inhibition of HYSGRGK(Ac)GGK(Ac)GLGK(Ac)GGAK(Ac)RHRK(Biotin)-OH binding to recombinant human His6-tagged BRD4 bromodomain 1 (N44 to E168 residues) expressed in Escherichia coli BL21 (DE3) cells measured after 2 hrs by Alphascreen assay
log10 IC50, nM

Illustrative cases are given below, each with its answer.
COc1cc2onc(C)c2cc1NS(=O)(=O)c1cc(Br)ccc1OC: 2.11
Cc1noc2ccc(-c3nc4ccc(N5CCOCC5)cc4n3Cc3ccccc3)cc12: 3.22
COc1ccc(Br)cc1S(=O)(=O)Nc1cc2c(C)noc2cc1OCC(=O)NCCN1CCOCC1: 3.36
CCCCn1c(-c2cc(Br)c3onc(C)c3c2)nc2ccc(N3CCOCC3)cc21: 2.72
Cc1noc2c(Br)cc(-c3nc4ccc(N5CCOCC5)cc4n3CC3CC3)cc12: 3.37

Give log10 of IC50 for all compounds that follow.
1. CCNC(=O)COc1cc2onc(C)c2cc1NS(=O)(=O)c1cc(Br)ccc1OC
2. COc1ccc(Cl)cc1S(=O)(=O)Nc1cc2c(C)noc2cc1C
3. Cc1noc2c(Br)cc(-c3nc4ccc(N5CCOC[C@@H]5C)cc4n3CC3CCCCC3)cc12
4. COc1cc2onc(C)c2cc1NS(=O)(=O)c1cc(C)ccc1OC
5. COc1ccc(OC)c(S(=O)(=O)Nc2cc3c(C)noc3cc2C)c1
6. CCCn1c(-c2cc(Br)c3onc(C)c3c2)nc2ccc(N3CCOCC3)cc21
7. Cc1cc2onc(C)c2cc1NS(=O)(=O)c1ccc(F)cc1
8. COc1cc2onc(C)c2cc1NS(=O)(=O)c1ccccc1Cl

1. 3.20
2. 3.02
3. 2.51
4. 2.67
5. 4.03
6. 3.26
7. 3.99
8. 2.34

The following compounds each have a reported value; give each one's log10 of IC50.
1. CCCS(=O)(=O)Nc1cc2c(C)noc2cc1C
2. COc1ccccc1S(=O)(=O)Nc1cc2c(C)noc2cc1C
3. Cc1noc2ccc(-c3nc4ccc(N5CCOCC5)cc4n3CC3CC3)cc12
4. CCCCS(=O)(=O)Nc1cc2c(C)noc2cc1C

1: 3.39; 2: 2.92; 3: 3.15; 4: 3.41

Batch lookup, log10 of IC50 per entry.
1. CCOc1cc2onc(C)c2cc1NS(=O)(=O)c1cc(Br)ccc1OC
2. COc1ccc(C)cc1S(=O)(=O)Nc1cc2c(C)noc2cc1C
3. COCCn1c(-c2ccc3onc(C)c3c2)nc2ccc(N3CCOCC3)cc21
4. Cc1cc2onc(C)c2cc1NS(=O)(=O)c1ccccc1
5. CNc1cc2onc(C)c2cc1NS(=O)(=O)c1cc(Br)ccc1OC

2.18
3.33
3.65
3.70
2.18
